# reported self-cleavage; entries follow
B1: Twister Ribozyme (parent)
chain: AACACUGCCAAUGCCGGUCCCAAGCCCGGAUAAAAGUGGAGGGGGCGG

Variants of: B1
Assay comment: self-cleavage, relative activity (ratio to wild type); higher = more cleavage; co-transcriptional

| Sequence code | self-cleavage |
| --- | --- |
| AACACUGCCAAUGCCGGUCGCAAGCUCGGAUAAAAGUGGAGGGGGCGG [C20G C26U] | 0.0527 |
| AACACUGCCAAUGCCGGUCCCAAGCCCGGAUAAAAGUGGAUGGAGCGG [G41U G44A] | 0.403 |
| GACACUGCCAAUGCCGGUCCCAAGCCCGGAUGAAAGUGGAGGGGGCGG [A1G A32G] | 0.507 |
| AACACUGCCAAUGCCGGUCCCAAGCCCGGAUAAAAGUAGAGGGGGCCG [G38A G47C] | 0.522 |
| AACACUGCCAAUGCCGGUCCCAAGCCCGAAUAAAAGUGGAGGGAGCGG [G29A G44A] | 0.738 |
| AACACUGCCAAUGCCGGUUCCAAGCCCGGAUAAAAGUGCAGGGGGCGG [C19U G39C] | 0.0962 |
| AACACUGCCAAUGCCGGUCCUAAGCCCGGUUAAAAGUGGAGGGGGCGG [C21U A30U] | 0.141 |
| AACUCUGCCAAUGCCGGUCCCGAGCCCGGAUAAAAGUGGAGGGGGCGG [A4U A22G] | 0.0233 |
| AACACUGCCAAUGCCAGUCCCAAGCCCGGAUAAAAGUGGAGGGCGCGG [G16A G44C] | 0.871 |
| AAUACUGCCAAUGCCGGUCCGAAGCCCGGAUAAAAGUGGAGGGGGCGG [C3U C21G] | 0.221 |
| AACACUGCCAAUGCCAGUCCCAAGCCCGGAUAAAAGAGGAGGGGGCGG [G16A U37A] | 0.457 |
| AACACUGCCAAGGCCGGUCCCAAGCCCGGAUAAAAGUGUAGGGGGCGG [U12G G39U] | 0.247 |
| AACACUGCCGAUGCCGGUCCCAAGCCCGGAUAAAGGUGGAGGGGGCGG [A10G A35G] | 0.92 |
| AACACAGCCAAUGCCGGUCCCAAGCCCGGAUCAAAGUGGAGGGGGCGG [U6A A32C] | 0.753 |
| AACACUGCCAAUGCCGGUCCCAAGCCCGGAUCAAAGUGGAGGGGGCCG [A32C G47C] | 0.556 |
| AACACUGCCAAUGCCGUUCCCAAGCCCGGAUAAAAGUGGAGAGGGCGG [G17U G42A] | 0.104 |
| AACACUGCCAAUGCCGGUACCAAGGCCGGAUAAAAGUGGAGGGGGCGG [C19A C25G] | 0.0863 |
| AACACUGCCAAUGCCGGUCCCGAGCCCUGAUAAAAGUGGAGGGGGCGG [A22G G28U] | 0.197 |
| AACACAGCCAAUGCCGGUCCCAAGCCCGGAUAAAAGUGGAGGUGGCGG [U6A G43U] | 0.245 |
| AACACUGCCAAUUCCGGUCCCUAGCCCGGAUAAAAGUGGAGGGGGCGG [G13U A22U] | 0.174 |
| AACACUUCCAAUGCCGGUCCAAAGCCCGGAUAAAAGUGGAGGGGGCGG [G7U C21A] | 0.0755 |
| AACACUGCCAAUGACGGUACCAAGCCCGGAUAAAAGUGGAGGGGGCGG [C14A C19A] | 0.366 |
| AACACUGCCAAUGCCGGCCCGAAGCCCGGAUAAAAGUGGAGGGGGCGG [U18C C21G] | 0.0463 |
| AACACUGCCAAUGCCGGUCCCAAGCCCGGAUGAAAGUGGAUGGGGCGG [A32G G41U] | 0.609 |
| AACACUGCCAAUGCAGGUCCCAAGCCCUGAUAAAAGUGGAGGGGGCGG [C15A G28U] | 0.736 |
| AACACUGCCAAAGCCGGUACCAAGCCCGGAUAAAAGUGGAGGGGGCGG [U12A C19A] | 0.342 |
| AACACUGCCAAUGCCGGUCGCAAGCCCGGAUACAAGUGGAGGGGGCGG [C20G A33C] | 0.0661 |
| AAAACUGCCAAUGCCGGUCCCAAGCCCGGAUGAAAGUGGAGGGGGCGG [C3A A32G] | 0.0493 |
| AACACUGCCAAUGCCGCUCCCAAGCCCGGAUAAAAGUCGAGGGGGCGG [G17C G38C] | 0.054 |
| AACACUGCCAAUGCCGGUCCGAAGCCCGGAUAAAAGUGGAGGGGGCGU [C21G G48U] | 0.0902 |
| AACAUUGCCAAUGCCGGUCCCAAGCCCGGAUAAAAGUGGAGGUGGCGG [C5U G43U] | 0.2 |
| AACACUGCCAAUGCCGGUCCCUACCCCGGAUAAAAGUGGAGGGGGCGG [A22U G24C] | 0.0864 |
| AACACUGCCAAUGCCGGUCCCAAGCUCGGAUAAACGUGGAGGGGGCGG [C26U A35C] | 0.446 |
| AACUCUGCCAAUGCCGGUCCCCAGCCCGGAUAAAAGUGGAGGGGGCGG [A4U A22C] | 0.0902 |
| AUCACUGCCACUGCCGGUCCCAAGCCCGGAUAAAAGUGGAGGGGGCGG [A2U A11C] | 0.309 |
| AACACUGCCAAUGCCGGUCCCAAGCCCGGCUAAAAGUGGAGGGGGUGG [A30C C46U] | 0.798 |
| CACACUGCCAAUGCCGCUCCCAAGCCCGGAUAAAAGUGGAGGGGGCGG [A1C G17C] | 0.145 |
| AACACUGCCAAGGCCGGUCCCAAGCCCGGAUAAAAGUGGAUGGGGCGG [U12G G41U] | 0.783 |
| AACACUACCAAUGCCGGUCCCAAGCCCGGAUAAAAUUGGAGGGGGCGG [G7A G36U] | 0.108 |
| ACCACUGCCAAUUCCGGUCCCAAGCCCGGAUAAAAGUGGAGGGGGCGG [A2C G13U] | 0.0549 |
| AACAGUGCCAAUGCCGGUCCCAAGCCCGGAUAAAAGUGGAGGGGGCGA [C5G G48A] | 0.67 |
| AACACUGCCACUGCCGGGCCCAAGCCCGGAUAAAAGUGGAGGGGGCGG [A11C U18G] | 0.0822 |
| AACACUGCCAAUGCCGGUCCCAAGCCUGGAGAAAAGUGGAGGGGGCGG [C27U U31G] | 0.723 |
| AACACUGCCAAUGCCGGACCCAAGCCCGGAUCAAAGUGGAGGGGGCGG [U18A A32C] | 0.53 |
| AACACUGCCAAUGCCGGUCCCAAGCCCGGACUAAAGUGGAGGGGGCGG [U31C A32U] | 1.02 |
| AACACUGCCAAUGCCGGUCCCAAGCCCGGUUAAAAGUGGAGGGGGCGA [A30U G48A] | 1 |
| GACACUGCCAAUGCCGGUCCCAAGCCCGGAUAAAAGUGGAGGAGGCGG [A1G G43A] | 0.176 |
| AACACUGCCAAUGCCGGUCCCAAGCCCGGAUAAAAGUGAAAGGGGCGG [G39A G41A] | 0.153 |
| AACACUGCCAAUGCCAGUCCCAAGCCCGGAUAAAUGUGGAGGGGGCGG [G16A A35U] | 1.05 |
| AACACUGCCAAUGUCGGUCCCAAGCCCGCAUAAAAGUGGAGGGGGCGG [C14U G29C] | 1.09 |
| AACACCGCCAAUGCCGGUACCAAGCCCGGAUAAAAGUGGAGGGGGCGG [U6C C19A] | 0.104 |
| AACACUGCCAAUGCCGGUCCCAAGCCCGGAAAAACGUGGAGGGGGCGG [U31A A35C] | 0.889 |
| AACACUGGCAAUGCCGGUCCCAAGCCUGGAUAAAAGUGGAGGGGGCGG [C8G C27U] | 0.14 |
| AACACUACCAAUGCCGCUCCCAAGCCCGGAUAAAAGUGGAGGGGGCGG [G7A G17C] | 0.0766 |
| AACAUUGCCAAUGCCGGUCCGAAGCCCGGAUAAAAGUGGAGGGGGCGG [C5U C21G] | 0.0614 |
| AACACUGCCAAUGCUGGUCCCAAGACCGGAUAAAAGUGGAGGGGGCGG [C15U C25A] | 0.178 |
| AACACUGCCAAUGCCGGUCCCAUGCCCGGAUAAAAGUGGAGGGGUCGG [A23U G45U] | 0.249 |
| AACACUGCUAAUGCCGGUCCCAAGCCCGGAUAAAAGUGGAGGGGGCUG [C9U G47U] | 0.269 |
| AACACUGCCAAUGCCGGUCCGAAGCCCGGAUACAAGUGGAGGGGGCGG [C21G A33C] | 0.152 |
| AACACUGCCAAUGCCGGUCCCAAGCCCAGAUAAAAGUGGAGGGGGAGG [G28A C46A] | 0.682 |
| AACACUGCCAAUCCCGGUCCCAUGCCCGGAUAAAAGUGGAGGGGGCGG [G13C A23U] | 0.0457 |
| AACACUGCCAAAACCGGUCCCAAGCCCGGAUAAAAGUGGAGGGGGCGG [U12A G13A] | 0.89 |
| AACACCGCCAAUGCGGGUCCCAAGCCCGGAUAAAAGUGGAGGGGGCGG [U6C C15G] | 0.1 |
| AACACUGCGUAUGCCGGUCCCAAGCCCGGAUAAAAGUGGAGGGGGCGG [C9G A10U] | 0.859 |
| AACACUGCCUAUGCCGGUCCCAAGCCCCGAUAAAAGUGGAGGGGGCGG [A10U G28C] | 0.768 |
| ACCACUGCUAAUGCCGGUCCCAAGCCCGGAUAAAAGUGGAGGGGGCGG [A2C C9U] | 0.0433 |
| AAGAGUGCCAAUGCCGGUCCCAAGCCCGGAUAAAAGUGGAGGGGGCGG [C3G C5G] | 0.101 |
| AACACUGCCAAUGCCGGUUCCAAGCCCGGAUAAAAGUGGAGGGUGCGG [C19U G44U] | 0.86 |
| AACACUGCCAAUGUCGGUCCGAAGCCCGGAUAAAAGUGGAGGGGGCGG [C14U C21G] | 0.108 |
| AACACUGCUAAUGCCGGUCCCAAGCCUGGAUAAAAGUGGAGGGGGCGG [C9U C27U] | 0.37 |
| AACACUGCCUAUGCCGGUCCCAAGCCCGGGUAAAAGUGGAGGGGGCGG [A10U A30G] | 0.915 |
| AACACUGCAAAUGCCGAUCCCAAGCCCGGAUAAAAGUGGAGGGGGCGG [C9A G17A] | 0.109 |
| AACACUGCCAAUGCCGGACCCAAGCCCGGAUAAAAGUGUAGGGGGCGG [U18A G39U] | 0.144 |
| AACACUGCCAAUGCCAGUCCCAAACCCGGAUAAAAGUGGAGGGGGCGG [G16A G24A] | 0.0954 |
| AACACUGCCAAUGCCGAUCCCAAGCCCGGAUAAAAGUGGAAGGGGCGG [G17A G41A] | 0.148 |
| AACACUGCCAAAGCCGGUCCCACGCCCGGAUAAAAGUGGAGGGGGCGG [U12A A23C] | 0.394 |
| AACACUGCCAAUGCCGGUCCAUAGCCCGGAUAAAAGUGGAGGGGGCGG [C21A A22U] | 0.0641 |
| AACACUGCCAAUGCCGGUCCCCAGCCCGGAUAAAAGUGGAGGCGGCGG [A22C G43C] | 0.145 |
| AACACUGCCACCGCCGGUCCCAAGCCCGGAUAAAAGUGGAGGGGGCGG [A11C U12C] | 0.79 |
| AACACUGCCAAUGCCGGUCCCAAGACCGGAUAAAAGUGGAGUGGGCGG [C25A G42U] | 0.0765 |
| AACACUGCCAAUGCCGGUCCCAAGCCCGGAUAACACUGGAGGGGGCGG [A34C G36C] | 0.104 |
| AACACUGCCAAUGUCGGUCUCAAGCCCGGAUAAAAGUGGAGGGGGCGG [C14U C20U] | 0.942 |
| AACAAUGCCAAUGCCGGUCCCAAGCCCGGAUAAAAGUUGAGGGGGCGG [C5A G38U] | 0.0941 |
| AACACUGCCAAUGCGGGUCCCAAGCCCGGAUAAAAUUGGAGGGGGCGG [C15G G36U] | 0.0831 |
| AACACUGACAAUGCCGGUCCCAAGCACGGAUAAAAGUGGAGGGGGCGG [C8A C26A] | 0.106 |
| AACACUGCCAAUGCCCGUCCCAAGCCCGGAUAAUAGUGGAGGGGGCGG [G16C A34U] | 0.207 |
| AACACUGCCAAUGCCCGUCCCAAGCCCGGAUAAAAGUGGAGGGGGUGG [G16C C46U] | 0.78 |
| AACACCGCCAAUGCCGGUCCCAAGCCCGGAUUAAAGUGGAGGGGGCGG [U6C A32U] | 0.488 |
| AACACUGCCAAUGCCGGUCCUAAGCCCGGAUAAAAGUUGAGGGGGCGG [C21U G38U] | 0.0705 |
| AACGCUGCCAAUGCCGGUCCCGAGCCCGGAUAAAAGUGGAGGGGGCGG [A4G A22G] | 0.0987 |
| AACACUGCCAAUGCCGGUCCCAAGCCCGGAAAAAAGUGUAGGGGGCGG [U31A G39U] | 0.168 |
